This collection of values is drawn from ChEMBL document CHEMBL4308841.

- System: HCT-15
- measurement.description: Growth inhibition of human HCT15 cells incubated for 48 hrs by sulforhodamine B assay
- Assay type: functional, cell-based
- measurement.setup: HCT-15, 48 h, read-out: GI50
Readings of GI50 for the listed compounds
Field: numeric (nM). Do not append units.

O=C(Nc1cccc(-n2cc(-c3ccncc3)c(-c3cc(O)cc(Cl)c3)n2)c1)Nc1ccc(Cl)c(Cl)c1 ... 2100
O=C(Nc1cccc(-n2cc(-c3ccncc3)c(-c3cc(O)cc(Cl)c3)n2)c1)c1cc(C(F)(F)F)cc(C(F)(F)F)c1 ... 2500
COc1cc(Cl)cc(-c2nn(-c3cccc(NC(=O)Nc4cc(C(F)(F)F)cc(C(F)(F)F)c4)c3)cc2-c2ccncc2)c1 ... 352

Report GI50 for COc1cc(Cl)cc(-c2nn(-c3cccc(NC(=O)c4ccc(N5CCOCC5)c(C(F)(F)F)c4)c3)cc2-c2ccncc2)c1 please. 3250

Report GI50 for COc1cc(Cl)cc(-c2nn(-c3cccc(NC(=O)Nc4cccc(C(F)(F)F)c4)c3)cc2-c2ccncc2)c1 please. 1340
